Experimental Details: AUC (0 to t) in Sprague-Dawley rat at 20 mg/kg, po administered for 24 hrs by LC-MS/MS analysis
Format: ADME, organism-based
Run Parameters: in vivo

| Structure Smiles | AUC(0-t) at 24 h / ng·h/mL |
| --- | --- |
| CC(=O)c1c(-c2nccc(NCCN3CCCC3)n2)[nH]c2ccccc12 | 1380 |

* * *

Experimental Details: Cmax in Sprague-Dawley rat at 5 mg/kg, po administered for 24 hrs by LC-MS/MS analysis
Format: ADME, organism-based
Run Parameters: in vivo

| Structure Smiles | Unit Of Measurement | Cmax |
| --- | --- | --- |
| CC(=O)c1c(-c2nc(NCCN3CCCC3)c3ccccc3n2)[nH]c2ccccc12 | µg/mL | 0.0637 |

FYI, the data here is from ChEMBL document CHEMBL5634089.
